experimentalSystem: UniProt:Q93009
Sequence (Q93009 whole entry): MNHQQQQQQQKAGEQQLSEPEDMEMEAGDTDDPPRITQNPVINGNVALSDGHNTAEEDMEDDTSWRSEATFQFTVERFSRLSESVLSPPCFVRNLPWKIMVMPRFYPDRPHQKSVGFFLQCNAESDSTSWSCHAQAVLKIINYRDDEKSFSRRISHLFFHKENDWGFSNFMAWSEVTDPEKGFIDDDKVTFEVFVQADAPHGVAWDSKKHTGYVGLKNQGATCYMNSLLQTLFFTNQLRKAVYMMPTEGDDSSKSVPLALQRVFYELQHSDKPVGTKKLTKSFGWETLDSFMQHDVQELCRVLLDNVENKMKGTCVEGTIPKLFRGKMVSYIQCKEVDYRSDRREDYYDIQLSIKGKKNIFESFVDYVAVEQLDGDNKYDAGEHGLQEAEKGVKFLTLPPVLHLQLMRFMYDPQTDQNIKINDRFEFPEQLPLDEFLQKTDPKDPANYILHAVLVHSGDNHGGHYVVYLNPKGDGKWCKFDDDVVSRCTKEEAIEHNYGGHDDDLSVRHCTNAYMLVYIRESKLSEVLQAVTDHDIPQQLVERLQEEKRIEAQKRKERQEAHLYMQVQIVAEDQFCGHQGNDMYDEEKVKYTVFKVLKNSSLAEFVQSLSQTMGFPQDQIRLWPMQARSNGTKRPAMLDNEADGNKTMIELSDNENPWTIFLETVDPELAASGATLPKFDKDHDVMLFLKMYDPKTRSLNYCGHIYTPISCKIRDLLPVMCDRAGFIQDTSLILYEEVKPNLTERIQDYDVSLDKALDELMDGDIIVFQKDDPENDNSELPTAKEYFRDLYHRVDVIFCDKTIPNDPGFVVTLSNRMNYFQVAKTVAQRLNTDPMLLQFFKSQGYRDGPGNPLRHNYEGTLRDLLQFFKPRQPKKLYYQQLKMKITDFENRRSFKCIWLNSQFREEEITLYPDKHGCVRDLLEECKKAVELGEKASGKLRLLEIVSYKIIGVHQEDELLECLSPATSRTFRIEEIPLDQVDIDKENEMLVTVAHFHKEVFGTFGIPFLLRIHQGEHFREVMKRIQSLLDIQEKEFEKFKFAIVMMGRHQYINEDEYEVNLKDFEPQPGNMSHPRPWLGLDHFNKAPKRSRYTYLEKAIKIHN
measurementNotes: Inhibition of human USP7 using Ub-EKL as substrate
pEC50: −log10 of the molar value.
quantity: pEC50

Q. Recorded pEC50 of CN(C)CCNC1CS(=O)(=O)c2cc(NC(=O)c3nnc(Sc4c(Cl)cncc4Cl)s3)ccc21 (stereo not given) , please.
A. > 6.00

Q. Recorded pEC50 of O=C(Nc1ccc2c(c1)S(=O)(=O)CC2NCCN1CCOCC1)c1nnc(Sc2c(Cl)cncc2Cl)s1 (stereo not given) , please.
A. > 6.00

Q. Recorded pEC50 of `O=C(Nc1ccc2c(c1)S(=O)(=O)C=C2)c1cnc(Sc2c(Cl)cncc2Cl)o1` , please.
A. < 5.00

Q. Recorded pEC50 of `CNS(=O)(=O)c1ccc(NC(=O)c2nnc(Sc3c(Cl)cncc3Cl)s2)cc1` , please.
A. > 6.00

Q. Recorded pEC50 of `O=C(Nc1ccc2c(c1)S(=O)(=O)C=C2)c1cnc(Sc2c(Cl)cncc2Cl)s1` , please.
A. 5.70

Data origin: ChEMBL document CHEMBL5233229
